target: human CDK4 and genetically truncated (1-264) cyclin D3 (Homo sapiens); test: Inhibition of CDK4/Cyclin D Retinoblastoma Kinase Activity; format: biochemical; conditions: at 0.03 μM
testReadout: CDK4 % Inhibition at 0.03 μM (%)

Nc1nc(NC2CCN(C(=O)c3c(F)cccc3F)CC2)sc1C(=O)c1c(F)cccc1F = 9
Nc1nc(NC2CCN(C(=O)N3CCCC3)CC2)sc1C(=O)c1c(F)cccc1F = 29

I. Nc1nc(NC2CCN(C(=O)c3ccc(Oc4cc(Cl)cc(Cl)c4)o3)CC2)sc1C(=O)c1c(F)cccc1F
II. Cc1c(S(=O)(=O)c2ccc(Cl)cc2)csc1C(=O)N1CCC(Nc2nc(N)c(C(=O)c3c(F)cccc3F)s2)CC1
Ask | Field: lower CDK4 % Inhibition at 0.03 μM | Options: I / II Respond using the label that marks the chosen record.
Reply | II
(II: 20%, I: 35%)

A. CCC(=O)N1CCC(Nc2nc(N)c(C(=O)c3c(F)cccc3F)s2)CC1
B. Nc1nc(NC2CCN(C(=O)C3(c4ccccc4)CC3)CC2)sc1C(=O)c1c(F)cccc1F
Ask | Rank A against B by their CDK4 % Inhibition at 0.03 μM values and give the higher one. Please identify the chosen entry by its label.
Reply | A
(A: 49%, B: −6%)

A. Nc1nc(NC2CCN(C(=O)CCc3ccccc3)CC2)sc1C(=O)c1c(F)cccc1F
B. Nc1nc(NC2CCN(C(=O)c3cccnc3Oc3ccccc3)CC2)sc1C(=O)c1c(F)cccc1F
Ask | Of the two listed items, A and B , which carries the larger CDK4 % Inhibition at 0.03 μM figure? Selection: enter the item's label.
Reply | A

---

The following compounds are shown together with reported HCT-116 % Inhibition at 0.25 μM values.
system: HCT-116 cell line; assay: Inhibition of cell growth, tetrazolium salt (MTT) assay; format: cell-based; details: 0.25 μM compound; HCT-116; Table 2
Give the value in % but do not write % after it.

Completed entries (count: 8):
CCCNC(=O)N1CCC(Nc2nc(N)c(C(=O)c3c(F)cccc3F)s2)CC1 = 31
CC(=O)c1cccc(NC(=O)N2CCC(Nc3nc(N)c(C(=O)c4c(F)cccc4F)s3)CC2)c1 = 35
COC(=O)[C@H](Cc1ccccc1)NC(=O)N1CCC(Nc2nc(N)c(C(=O)c3c(F)cccc3F)s2)CC1 = 47
Nc1nc(NC2CCN(C(=O)NC3CCCCC3)CC2)sc1C(=O)c1c(F)cccc1F = 22
Cc1cc(C)cc(NC(=O)N2CCC(Nc3nc(N)c(C(=O)c4c(F)cccc4F)s3)CC2)c1 = 20
COc1ccccc1NC(=O)N1CCC(Nc2nc(N)c(C(=O)c3c(F)cccc3F)s2)CC1 = 43
CC(NC(=O)N1CCC(Nc2nc(N)c(C(=O)c3c(F)cccc3F)s2)CC1)c1cccc2ccccc12 (stereo not shown) = 50
CCOC(=O)NC(=O)N1CCC(Nc2nc(N)c(C(=O)c3c(F)cccc3F)s2)CC1 = 29

Ask | So what does the record say about HCT-116 % Inhibition at 0.25 μM for Nc1nc(NC2CCN(C(=O)NCc3ccccc3)CC2)sc1C(=O)c1c(F)cccc1F ?
Reply | 34

Ask | Now the same for CC(=O)c1ccc(NC(=O)N2CCC(Nc3nc(N)c(C(=O)c4c(F)cccc4F)s3)CC2)cc1
Reply | 41

---

tested on: HCT-116 cell line; assay: Inhibition of cell growth, tetrazolium salt (MTT) assay; assay type: cell-based; conditions: Homo sapiens, HCT-116, 120 h, first HCT-116 column (c4); MTT, three to five days; read-out: HCT-116 IC50
Counter-ions that a name gives are not always drawn.
testReadout: IC50 (nM)

// worked examples, IC50 included
C[C@@H](O)CN(C)c1ccc(S(=O)(=O)N2CCC(Nc3nc(N)c(C(=O)c4c(F)cccc4F)s3)CC2)cn1 [Example G17, Trifluoroacetic Acid Salt] = 360
Nc1nc(NC2CCN(C(=O)c3ccc(Cl)nc3)CC2)sc1C(=O)c1c(F)cccc1F = 590

I. Nc1nc(NC2CCN(S(=O)(=O)CCN(CC3CC3)CC3CC3)CC2)sc1C(=O)c1c(F)cccc1F
II. Nc1nc(NC2CCN(S(=O)(=O)c3ccc(N4CC[S+]([O-])CC4)nc3)CC2)sc1C(=O)c1c(F)cccc1F
Ask | Which record would sort first by descending IC50, I or II ? Write down the label of the entry you select.
Reply | II

---

target: CDK2/Cyclin A (Homo sapiens, UniProt P24941); assay: Inhibition of CDK2/Cyclin A Retinoblastoma Kinase Activity; assay type: biochemical; settings: read-out: % inhibition of CDK2 (@ 0.05 μM), compound at 0.05 μM
testReadout: inhibition at 0.05 µM (%)

CCN(CCO)CCCS(=O)(=O)N1CCC(Nc2nc(N)c(C(=O)c3c(F)cccc3F)s2)CC1 [Example V51] = 79
Nc1nc(NC2CCN(S(=O)(=O)CCCN3CCCC(O)C3)CC2)sc1C(=O)c1c(F)cccc1F (stereo not shown) [Example V77] = 72

I. Cc1cnc(CNCCCS(=O)(=O)N2CCC(Nc3nc(N)c(C(=O)c4c(F)cccc4F)s3)CC2)cn1 [Example V43]
II. Nc1nc(NC2CCN(S(=O)(=O)CCCNC3CCOC3=O)CC2)sc1C(=O)c1c(F)cccc1F (stereo not shown) [Example V18]
Ask | // compare measured inhibition at 0.05 µM, left I , right II , return larger State your choice using its label.
Reply | I

---

molecular target: human CDK4 and genetically truncated (1-264) cyclin D3 (Homo sapiens); assay: Inhibition of CDK4/Cyclin D Retinoblastoma Kinase Activity; type: biochemical; settings: 0.03 μM compound; Table 2
testReadout: CDK4 % Inhibition at 0.03 μM (%)

Previously resolved entries follow.
Cc1ccc(S(=O)(=O)NC(=O)N2CCC(Nc3nc(N)c(C(=O)c4c(F)cccc4F)s3)CC2)cc1 = 3
CCOC(=O)c1cccc(NC(=O)N2CCC(Nc3nc(N)c(C(=O)c4c(F)cccc4F)s3)CC2)c1 = 15
COC(=O)c1cc(NC(=O)N2CCC(Nc3nc(N)c(C(=O)c4c(F)cccc4F)s3)CC2)cc(C(=O)OC)c1 = 7
Nc1nc(NC2CCN(C(=O)Nc3ccc(Cl)c(C(F)(F)F)c3)CC2)sc1C(=O)c1c(F)cccc1F = 7
Nc1nc(NC2CCN(C(=O)Nc3ccc4ccccc4c3)CC2)sc1C(=O)c1c(F)cccc1F = 15
Nc1nc(NC2CCN(C(=O)Nc3ccc(Oc4ccccc4)cc3)CC2)sc1C(=O)c1c(F)cccc1F = 11
CCOC(=O)CNC(=O)N1CCC(Nc2nc(N)c(C(=O)c3c(F)cccc3F)s2)CC1 = 16
N#Cc1ccc(NC(=O)N2CCC(Nc3nc(N)c(C(=O)c4c(F)cccc4F)s3)CC2)cc1 = 9
Nc1nc(NC2CCN(C(=O)Nc3cc(C(F)(F)F)ccc3F)CC2)sc1C(=O)c1c(F)cccc1F = 8
COC(=O)[C@@H](NC(=O)N1CCC(Nc2nc(N)c(C(=O)c3c(F)cccc3F)s2)CC1)C(C)C = 5

A. Nc1nc(NC2CCN(C(=O)NCCc3ccccc3)CC2)sc1C(=O)c1c(F)cccc1F
B. CC(C)c1ccccc1NC(=O)N1CCC(Nc2nc(N)c(C(=O)c3c(F)cccc3F)s2)CC1
C. Nc1nc(NC2CCN(C(=O)Nc3ccc([N+](=O)[O-])cc3)CC2)sc1C(=O)c1c(F)cccc1F
D. Nc1nc(NC2CCN(C(=O)Nc3ccccc3Oc3ccccc3)CC2)sc1C(=O)c1c(F)cccc1F
Ask | Could you please order the items by CDK4 % Inhibition at 0.03 μM, going from the lowest number to the highest? To answer, arrange all of the labels according to the requested order.
Reply | A, D, B, C
(A: −2%, D: 4%, B: 6%, C: 12%)

---

target: human CDK4 and genetically truncated (1-264) cyclin D3 (Homo sapiens, UniProt P11802); experiment: Inhibition of CDK4/Cyclin D Retinoblastoma Kinase Activity; type: biochemical; conditions: 0.03 μM compound; Table 2
Sequence (P11802 whole entry, the tested form may be a part): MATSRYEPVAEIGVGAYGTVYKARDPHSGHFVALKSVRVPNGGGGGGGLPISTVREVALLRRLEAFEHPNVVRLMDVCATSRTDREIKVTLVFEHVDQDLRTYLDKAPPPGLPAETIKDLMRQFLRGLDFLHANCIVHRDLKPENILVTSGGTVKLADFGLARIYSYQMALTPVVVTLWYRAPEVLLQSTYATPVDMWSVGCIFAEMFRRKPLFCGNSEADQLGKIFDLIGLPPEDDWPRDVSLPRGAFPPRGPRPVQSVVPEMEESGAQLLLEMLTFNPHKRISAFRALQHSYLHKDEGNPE
Sequence (P30281 1-264 partner): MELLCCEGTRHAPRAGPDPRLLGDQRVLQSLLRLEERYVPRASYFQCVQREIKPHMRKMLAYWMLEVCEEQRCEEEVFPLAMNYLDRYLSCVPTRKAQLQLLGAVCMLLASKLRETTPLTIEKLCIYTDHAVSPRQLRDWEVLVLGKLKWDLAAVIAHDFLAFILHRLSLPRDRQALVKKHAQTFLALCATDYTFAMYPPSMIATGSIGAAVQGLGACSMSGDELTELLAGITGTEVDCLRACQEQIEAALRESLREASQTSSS
testReadout: CDK4 % Inhibition at 0.03 μM (%)

CCCCCCCOc1ccc(NC(=O)N2CCC(Nc3nc(N)c(C(=O)c4c(F)cccc4F)s3)CC2)cc1 = 12

I. Cc1ccc(C)c(NC(=O)N2CCC(Nc3nc(N)c(C(=O)c4c(F)cccc4F)s3)CC2)c1
II. CCOC(=O)C(CC(C)C)NC(=O)N1CCC(Nc2nc(N)c(C(=O)c3c(F)cccc3F)s2)CC1 (stereo not shown)
Ask | Parameter check: reported CDK4 % Inhibition at 0.03 μM is higher for which label, I or II ? Respond using the label that marks the chosen record.
Reply | I

---

target: CDK2/Cyclin A (Homo sapiens); assay: Inhibition of CDK2/Cyclin A Retinoblastoma Kinase Activity; format: biochemical; conditions: at 0.03 μM
testReadout: CDK2 % Inhibition at 0.03 μM (%)

# example entries with known answers
CS(=O)(=O)c1csc(C(=O)N2CCC(Nc3nc(N)c(C(=O)c4c(F)cccc4F)s3)CC2)c1Cl [Example R72] = 57
COc1ccccc1C(=O)N1CCC(Nc2nc(N)c(C(=O)c3c(F)cccc3F)s2)CC1 [Example R114] = 60
Nc1nc(NC2CCN(C(=O)c3ccc(N=Nc4ccccc4)cc3)CC2)sc1C(=O)c1c(F)cccc1F [Example R13] = 32

A. Nc1nc(NC2CCN(C(=O)CC3C=CCC3)CC2)sc1C(=O)c1c(F)cccc1F (centres unmarked) [Example R98]
B. COC(=O)CCCCC(=O)N1CCC(Nc2nc(N)c(C(=O)c3c(F)cccc3F)s2)CC1 [Example R4]
C. CCC(Oc1ccccc1)C(=O)N1CCC(Nc2nc(N)c(C(=O)c3c(F)cccc3F)s2)CC1 (centres unmarked) [Example R162]
D. CC(C)S(=O)(=O)c1csc(C(=O)N2CCC(Nc3nc(N)c(C(=O)c4c(F)cccc4F)s3)CC2)c1Cl [Example R62]
E. CC(C)OC(=O)N1CCC(Nc2nc(N)c(C(=O)c3c(F)cccc3F)s2)CC1 [Example R84]
Ask | Put the items in order so that reported CDK2 % Inhibition at 0.03 μM rises from first to last. In your reply, arrange the labels in the requested order.
Reply | B, E, A, C, D
(B: −5%, E: 4%, A: 8%, C: 27%, D: 65%)
